# system under test: human GPR119 (Homo sapiens)
# Sequence (Q8TDV5 1-335): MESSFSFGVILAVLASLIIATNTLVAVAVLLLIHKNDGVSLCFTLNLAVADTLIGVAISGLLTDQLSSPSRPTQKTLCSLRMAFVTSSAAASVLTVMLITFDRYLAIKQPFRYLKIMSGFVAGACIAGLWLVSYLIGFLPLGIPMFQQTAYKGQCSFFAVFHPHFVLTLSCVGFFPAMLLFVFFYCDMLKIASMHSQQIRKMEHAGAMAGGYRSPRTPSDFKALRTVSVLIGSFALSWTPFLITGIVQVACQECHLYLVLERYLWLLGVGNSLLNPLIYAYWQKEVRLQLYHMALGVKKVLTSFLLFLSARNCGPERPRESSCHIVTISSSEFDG
# test protocol: Functional cellular assay measuring GPR119-mediated cAMP release (HTRF) in HEK-293 cells stably expressing recombinant human GPR119
# assay setup: cAMP response, cell line expressing human GPR119, 30 minutes at room temperature
measurement label: EC50 (nM)
A number alone suffices; assume nM.

// EC50 lookup, key: C[S+]([O-])CN1Cc2ccc(N3CC[C@@H](Oc4ccc(Oc5ccc(F)cc5)nc4)C3=O)cc2C1=O (stereo partly shown) 64

Request: CN(C)C(=O)CN1Cc2ccc(N3CC[C@@H](Oc4ccc(OC5CC5)nc4)C3=O)cc2C1=O 1040

Now the molecule COC(=O)CN1Cc2ccc(N3CC[C@@H](Oc4ccc(OCCC5CC5)nc4)C3=O)cc2C1=O 63

Cc1noc(COc2ccc(O[C@@H]3CCN(c4ccc5c(c4)C(=O)N(CC(=O)N(C)C)C5)C3=O)cc2)n1 , same question. 1500

Now this one: CN(C)C(=O)CN1Cc2c(F)cc(N3CC[C@@H](Oc4ccc(OCC5CCC5)nc4)C3=O)cc2C1=O 35

One more molecule: CS(=O)(=O)CN1Cc2ncc(N3CC[C@@H](Oc4ccc(C(=O)C5CC5)cc4)C3=O)cc2C1=O 139
